The reported measurements were obtained from patent US20250382355A1.

molecular target: Biotinylated CoV2 Spike ECD PreS-AVI protein (SARS-CoV-2, UniProt P0DTC2 14-1208); assay: Octet binning; competitor 7A9
measured_attribute: binning response
API doc: respond with a numeric literal and nothing else, no unit.

binder	binning response
15H7 VHH-Fc (Fc fusion) QVQLVESGGRLVQAGGSLRLSCAAPGRTFRNLTLGWFRQAPGKEREFVASTSWPDDEMTYYTDSVKGRFTISRDNAKNTVYLQMNSLKPEDTAVYYCAAASWSGRSTLSYDYDYWGQGTQVTVST	0.37

Would you mind telling me what binning response value was observed for 7A9 VHH-Fc (Fc fusion) QVQLVESGGGLVQAGGSLRLSCSASGGTASRSAMGWFRQAPGKEREFVAGISRRNSGSTYVADSYEDSVKGRFTISRDNAKNTIYLQMNSLKPEDTAVYYCAAEPTLGWYVPRRSVEYEYWGQGTQVTVSS ?
0.06

Would you mind telling me what binning response value was observed for 8E9 VHH-Fc (Fc fusion) QVQLVESGGGLVEAGGSLRLSCVASGSSSSINAMGWYRQAPGKQRELVASISHDGETKYANSVKGRFTISRGNAKNTIYLQMNSLKPEDTAVYYCVGDVAWVVVAGEYDYWGQGTQVTVSS ?
0.39

Would you mind telling me what binning response value was observed for 19C10 VHH-Fc (Fc fusion) QVQLVESGGGLVQPGGSLRLSCAASGFTLDLNSIGWFRQAPGKEREGVSCISPSASSTHYADSVKGRFTISRDNAKNTVYLQMNSLKPEDTAVYYCATGTPSYHYCSMYGLEYDDWGQGTQVTVSS ?
0.36

Would you mind telling me what binning response value was observed for 1E4 VHH-Fc (Fc fusion) QVLLVESGGGLVQAGGLLRLACSASGRTFTENVMGWFRQAPGKEREFVAAINWNTGSTYYSDSRKGRFTISKDNAKNTMFLQINNLKPEDTAVYYCGGTSSSYYYIGEFIPDYWGQGTQVTVSS ?
0.26

Would you mind telling me what binning response value was observed for 1A11 VHH-Fc (Fc fusion) QVQLVESGGGLVQAGGSLRLSCEVSGSIYSINSMGWYRQAPGKQRELVAGIVSDGRINYADSVKGRFTISRAKNTVYLQMNSLKPEDTAVYYCAADRAFVYAGDYDYLGQGTQVTVSS ?
0.38

Would you mind telling me what binning response value was observed for 11F8 VHH-Fc (Fc fusion) QVQLVESGGGLVQAGGSLRLSCAASGRTVGYYAVGWFRQAPGKERDFVAAISWSGRNTNYADSVTGRFTIFRDNAKNTVDLQMNSLKPEDTAVYYCAADYWNYGSGSEVPNNYDTWGQGTQVTVSS ?
0.35

Would you mind telling me what binning response value was observed for 5D7 VHH-Fc (Fc fusion) QVQLVESGGGLVQAGGSLRLSCAASGRTGSRYIMGWFRQAPGKEREFVAAINWRGDSTYYADSVKGRFTIARDNAKNTAYLQMNSLKPEDTAVYYCVADRGESYYYTRSTEYTYWGQGTQVTVSS ?
0.31
